# Tested on: mucin from porcine stomach type III
# protocol details: UV-visible localized spectroscopy: diffusion from mucin dispersions into water (Drel), and of mucin itself
# Type: physicochemical
# details: MUC 0.1% w/w; compared to the absence of mucin
experimental readout: D Reduction (%)

A: COc1ccc2cc([C@H](C)C(=O)O)ccc2c1 [NPR, naproxen]
B: C[C@]12CCC(=O)C=C1CC[C@@H]1[C@@H]2[C@@H](O)C[C@@]2(C)[C@H]1CC[C@]2(O)C(=O)CO [HYD, hydrocortisone]
Data request: Lab note: check whether A or B has the lower measured D Reduction (%). Which one? Tell me its label.
Data returned: B
(B: 17%, A: 25%)

---

# System: mucin from porcine stomach type III
# protocol details: UV-visible localized spectroscopy: diffusion from mucin dispersions into water (Drel), and of mucin itself
# Assay type: physicochemical
# details: MUC 0.3% w/w; compared to the absence of mucin
experimental readout: D Reduction (%)

Solved entries:
Data request: Quick one: D Reduction (%) for Cn1c(=O)c2c(ncn2C)n(C)c1=O [CAF, caffeine] ?
Data returned: 51

Data request: One more molecule: CC(C)NCC(O)COc1ccc(CC(N)=O)cc1 (stereo not shown) [ATN, Atenolol]
Data returned: 47

P: C[C@]12CCC(=O)C=C1CC[C@@H]1[C@@H]2[C@@H](O)C[C@@]2(C)[C@H]1CC[C@]2(O)C(=O)CO [HYD, hydrocortisone]
Q: COc1ccc2cc([C@H](C)C(=O)O)ccc2c1 [NPR, naproxen]
Data request: When their D Reduction (%) values are compared, which is larger, P or Q ? Which one? Tell me its label.
Data returned: Q

---

# protocol details: UV-visible localized spectroscopy: drug diffusion coefficient in water (D0)
# details: no mucin; drug in PBS 65 mOsm/kg pH 7.4 injected into water; 23–25 °C; average of two parallel experiments
experimental readout: D0 (diffusion coefficient in plain water)

Data request: Quick one: D0 (diffusion coefficient in plain water) for C[C@]12CCC(=O)C=C1CC[C@@H]1[C@@H]2[C@@H](O)C[C@@]2(C)[C@H]1CC[C@]2(O)C(=O)CO [HYD, hydrocortisone] ?
Data returned: 6.44 10^−6 cm^2/s

Data request: One more compound: COc1ccc2cc([C@H](C)C(=O)O)ccc2c1
Data returned: 8.02 10^−6 cm^2/s

Data request: One more compound: Cn1c(=O)c2c(ncn2C)n(C)c1=O
Data returned: 9.07 10^−6 cm^2/s

Data request: One more compound: CC(C)NCC(O)COc1ccc(CC(N)=O)cc1 (stereo not shown)
Data returned: 5.81 10^−6 cm^2/s

---

# Tested on: mucin from porcine stomach type III
# protocol details: UV-visible localized spectroscopy: diffusion from mucin dispersions into water (Drel), and of mucin itself
# Type: physicochemical
# details: MUC 0.6% w/w; compared to the absence of mucin
experimental readout: D Reduction (%)

Solved entries:
Data request: Quick one: D Reduction (%) for COc1ccc2cc([C@H](C)C(=O)O)ccc2c1 ?
Data returned: 65

Data request: One more compound: Cn1c(=O)c2c(ncn2C)n(C)c1=O
Data returned: 67

1: CC(C)NCC(O)COc1ccc(CC(N)=O)cc1 (stereo not shown)
2: C[C@]12CCC(=O)C=C1CC[C@@H]1[C@@H]2[C@@H](O)C[C@@]2(C)[C@H]1CC[C@]2(O)C(=O)CO [HYD, hydrocortisone]
Data request: Lab note: check whether 1 or 2 has the lower measured D Reduction (%). Which one? Tell me its label.
Data returned: 2
(2: 37%, 1: 63%)
